# assay-target: hBGT1 (Homo sapiens)
# Construct: expressed in transfected cells; host or cells: tsA201 (transient)
# measurement-description: [3H]GABA uptake at hBGT1 transiently expressed in tsA201 cells
# Format: cell-based
# test-conditions: pIC50 ± S.E.M., high affinity component, 2 μg cDNA (n=2); biphasic fit
readout-name: IC50 (µM)
Your answer is read as µM, so omit the unit and give the number.

Enquiry: Under hBGT1 (Homo sapiens): report IC50 of Cc1ccsc1C(=CCCN(C)[C@H]1CCCC[C@H]1C(=O)O)c1sccc1C .
Return: 3.39

---

# assay-target: hBGT1 (Homo sapiens, UniProt P48065)
# Construct: expressed in transfected cells; host or cells: tsA201 (transient)
# Sequence (P48065 whole entry): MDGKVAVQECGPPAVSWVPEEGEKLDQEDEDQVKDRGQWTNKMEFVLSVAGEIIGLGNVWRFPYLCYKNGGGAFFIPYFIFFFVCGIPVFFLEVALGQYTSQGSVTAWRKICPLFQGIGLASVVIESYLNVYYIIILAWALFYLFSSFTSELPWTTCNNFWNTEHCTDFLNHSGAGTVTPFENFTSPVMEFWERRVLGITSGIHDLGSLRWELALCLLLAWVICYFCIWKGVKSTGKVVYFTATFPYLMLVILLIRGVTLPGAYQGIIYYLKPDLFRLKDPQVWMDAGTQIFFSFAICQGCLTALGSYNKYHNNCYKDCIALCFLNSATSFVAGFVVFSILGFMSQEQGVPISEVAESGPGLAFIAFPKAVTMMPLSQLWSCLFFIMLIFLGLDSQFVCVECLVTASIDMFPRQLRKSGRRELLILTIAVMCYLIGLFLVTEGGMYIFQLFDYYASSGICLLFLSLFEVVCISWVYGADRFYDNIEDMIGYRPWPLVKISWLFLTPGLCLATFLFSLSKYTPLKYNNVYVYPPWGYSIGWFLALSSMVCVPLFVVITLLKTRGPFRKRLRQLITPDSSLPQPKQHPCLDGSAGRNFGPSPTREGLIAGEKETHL
# measurement-description: [3H]GABA uptake at hBGT1 stably expressed in CHO cells
# Format: cell-based
# test-conditions: IC50, high affinity component, biphasic fit, N=2 of four experiments; CHO
readout-name: IC50
Provide the measurement as a number trailed by its unit.

Enquiry: Let me know recorded IC50 for Cc1ccsc1C(=CCCN(C)[C@H]1CCCC[C@H]1C(=O)O)c1sccc1C , thanks.
Return: 50 nM
